Biological target: spike glycoprotein of wild type SARS-CoV-2 virus (SARS-CoV-2, UniProt P0DTC2 14-1273)
Assay: cell-based or functional assay
Measure name: Neutralization by PRNT EC50 (nM)
Give a bare numeral; the unit nM is implied.

Query: Which Neutralization by PRNT EC50 is reported for this binder? FM 1A (antibody, V domains shown) VH: EVQLLESGGGVVQPGRSLRLSCAASGFTFSSYGMHWVRQAPGKGLEWVAVIWYDGSNKYYADSVKGRFTISRDNSKNTLYLQMNSLRAEDTAVYYCAREGAVGATRGFDYWGQGTLVTVSS VL: SYELTQPPSVSVAPGQTARITCGGNNIGSKSVHWYQQKPGQAPVLVVYDDSDRPSGIPERFSGSNSGNTATLTISRVEAGDEADYYCQVWDSSSDQGVFGGGTKLTVL
Reply: 133

Query: If you can, please state the reported Neutralization by PRNT EC50 value of EW 9C-1 (antibody, V domains shown) VH: EVQLVESGGGVVQPGASLRLSCVASGFTFNNFGFHWVRQAPGKGLEWLAVISYEGSKTYYAESLKGRFTISRDTSKNTVYLQMNSLRAEDTAVYYCARATSIFWFGEGRNWFDPWGQGALVTVSS VL: EIVMTQSPGTVSLSAGERATLSCRASQNVGTDLAWYVQRPGQAPRLLIYDTSNRATGIPARFSGRGSGTDFTLTIDSLEPEDFAVYYCQQRSNWPLTFGGGTKVEIK .
Reply: 133
